So I've got a bunch of compounds here, and I need their pKi values.
Target: Delta-type opioid receptor (Rattus norvegicus)
Sequence (P33533 whole entry): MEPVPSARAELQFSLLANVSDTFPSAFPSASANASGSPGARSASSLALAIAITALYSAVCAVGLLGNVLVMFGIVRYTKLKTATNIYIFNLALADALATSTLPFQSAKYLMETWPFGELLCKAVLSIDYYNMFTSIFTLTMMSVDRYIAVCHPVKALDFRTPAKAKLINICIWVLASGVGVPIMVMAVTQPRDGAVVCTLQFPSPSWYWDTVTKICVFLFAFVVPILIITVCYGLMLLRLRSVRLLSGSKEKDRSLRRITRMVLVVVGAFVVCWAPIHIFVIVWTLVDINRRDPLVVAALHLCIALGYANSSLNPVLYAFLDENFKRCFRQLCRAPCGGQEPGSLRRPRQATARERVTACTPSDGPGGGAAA
Assay: Displacement of [3H]-DPDPE from rat cortical membrane DOR assessed as inhibition constant incubated for 2.5 hrs by Wallac Betaplate liquid scintillation counting analysis
Give only the number. pKi is defined as minus log10 of concentration in molar units.

Q: # get_value(readout='pKi', item= "CC(C)C[C@H]1CN2C(=CC3=NC[C@H](CCN(C)C)N3C[C@@H]2Cc2ccc(O)cc2)N1CCc1ccccc1" )
Result: 8.30

Q: Fill in: pKi of "CC(C)C[C@H]1CN2C(=CC3=NC[C@@H](C(C)C)N3C[C@H]2Cc2ccc(O)cc2)N1CCc1ccccc1" is ___
Result: 9.00

Q: Field request: pKi | item: "CC(C)C[C@H]1CN2C(=CC3=NC[C@H](CN(C)C)N3C[C@@H]2Cc2ccc(O)cc2)N1CCc1ccccc1"
Result: 8.30

Q: Can you share its pKi? I mean this compound: "CC(C)[C@H]1CN=C2C=C3N(CCc4ccccc4)[C@@H](CN(C)C)CN3[C@@H](Cc3ccc(O)cc3)CN21"
Result: 8.40

Q: So what does the record say about pKi for "CC(C)C[C@H]1CN=C2C=C3N4CCC[C@H]4CN3[C@@H](Cc3ccc(O)cc3)CN21" ?
Result: 8.00

Q: Data request, read-out pKi, for "CC(C)(C)c1ccc(S(=O)(=O)NCCN2C(=N)N([C@@H](CCCNC(=N)N)CN3C(=N)NC[C@@H]3CCCNC(=N)N)C[C@@H]2CCCNC(=N)N)cc1"
Result: 8.15
